- Tested on: N-terminal HiBiT tagged BCL6 (Homo sapiens)
- Construct: expressed in transfected cells; host or cells: HT1080 (ATCC CCL-121), stably transduced with lentivirus pLV-UBC-N-HiBiT-BCL6-PGK-puro
- Protocol: HiBiT based degradation assay
- Type: cell-based
- Cond: HT1080 cells expressing N-terminal HiBiT tagged BCL6; 5 hours of incubation; four-parameter logistic model; read-out: EC50 (5 hr)
Documented DC50 across a set of molecules
Experimental readout: DC50

>  <Molecule>
CNC(=O)COc1cc2cc(Nc3nc(N4CC5(CCC(Oc6cccc7c(C8CCC(=O)NC8=O)nn(C)c67)CC5)C4)ncc3Cl)cnc2n(C(C)C)c1=O (centres unmarked)

>  <Experimental value>
10 to 100 nM

$$$$
>  <Molecule>
CNC(=O)COc1cc2cc(Nc3nc(N4CCC5(CC4)CC(N4CCN(c6cccc7c(C8CCC(=O)NC8=O)nn(C)c67)CC4)C5)ncc3Cl)cnc2n(C(C)C)c1=O (centres unmarked)

>  <Experimental value>
10 to 100 nM

$$$$
>  <Molecule>
CNC(=O)COc1cc2cc(Nc3nc(N4CCN(c5ccc6c(C7CCC(=O)NC7=O)nn(C)c6c5)CC4)ncc3Cl)cnc2n(C(C)C)c1=O (centres unmarked)

>  <Experimental value>
< 10 nM

$$$$
>  <Molecule>
CNC(=O)COc1cc2cc(Nc3nc(N4CCN(CC5CCN(c6cccc7c(C8CCC(=O)NC8=O)nn(C)c67)CC5)CC4)ncc3Cl)cnc2n(C(C)C)c1=O (centres unmarked)

>  <Experimental value>
10 to 100 nM

$$$$
>  <Molecule>
CNC(=O)COc1cc2cc(Nc3nc(N4CC5(CC[C@H](Oc6ccc7c(C8CCC(=O)NC8=O)nn(C)c7c6)[C@H](C)C5)C4)ncc3Cl)cnc2n(C(C)C)c1=O (single isomer, unassigned) [Compound 185a]

>  <Experimental value>
< 10 nM

$$$$
